Values compiled from BindingDB's records for patent US20250066318.

Values of pIC50 reported for UniProtKB Q13627 appear below.
Numbers only, as −log10 of the molar value.

Consider the reported pIC50 for these compounds:
1. CN1CCC(C#Cc2cc3cc(-c4cnn(C)c4)ccc3cn2)CC1 ... 7.26
2. O=C(O)[C@H]1C[C@@H](Oc2c(-c3cncs3)ccc3cnccc23)C1 ... 6.26
3. CN1CC=C(c2cn3ncc(-c4ccc(C#N)cc4)c3c(=O)[nH]2)CC1 ... 6.76
4. O=C(O)[C@H]1C[C@H](Oc2c(-c3cncs3)ccc3cnccc23)C1 ... 6.26

Lab note: next compound to report on.
Problem: Give reported pIC50 value for Cc1c(F)ncc2ccc(-c3cnn(C)c3)cc12
Solution: 7.26
